Assignment: determine reported solubility at 24 h for the given compounds.
- Protocol: Water solubility of the compound measured for 24 hrs by HPLC analysis
- Assay type: physicochemical
One number for each entry, in mg/mL.

C[C@@]12CC[C@@H]3[C@@](CC[C@H]4[C@@]3(C)CCC[C@@]4(C)C(=O)N3CCN(C(=O)c4ccccc4C(=O)[O-])CC3)(CC1=O)C2.[Na+]
54

Continue with the next compound.
Tell me the measured solubility at 24 h of C[C@@]12CC[C@@H]3[C@@](CC[C@H]4[C@@]3(C)CCC[C@@]4(C)C(=O)N3CCN(C(=O)c4ccccc4C(=O)O)CC3)(CC1=O)C2 , please. 0.94
